Biological target: D321A (Homo sapiens, UniProt P28482, D321A)
Construct: gene MAPK1; recombinant ERK2 D321A
Experiment: biochemical
Parameters: Differential scanning fluorimetry, SYPRO Orange, 2 uM ERK2, melting temperature shift with 12 uM inhibitor
Details: read-out: ΔTm D321A
assay.metric: ΔTm at 12 µM (°C)

Past entries and their recorded results:
compound	unit.name	ΔTm at 12 µM
Cn1nccc1Nc1nccc(-c2cc3c(s2)C(C)(C)N(CCN2CCOCC2)C3=O)n1 [LY3214996]	°C	9.8
O=C1Nc2cc3[nH]nc(-c4ccncc4)c3cc2CN1Cc1ccccc1 [KO-947]	°C	12.3
COC[C@H]1Cn2cc(-c3nc(Nc4ccnn4C)ncc3C)nc2C(=O)N1Cc1ccc(F)c(F)c1 [AZD0364]	°C	13.3
O=C(Nc1ccc2[nH]nc(-c3ccncc3)c2c1)[C@@H]1CCN(CC(=O)N2CCN(c3ccc(-c4ncccn4)cc3)CC2)C1 [SCH772984]	°C	11

(P) CC(C)Nc1cc(-c2c[nH]c(C(=O)N[C@H](CO)c3cccc(Cl)c3)c2)c(Cl)cn1 [Ulixertinib]
(Q) Nc1[nH]nc2nnc(-c3c(-c4ccccc4)nn4ccccc34)cc12 [FR 180204]
Just curious, which one has the larger ΔTm at 12 µM reading, P or Q ? // output: label of the selected item
P
(P: 8.3 °C, Q: 3.2 °C)

// data source = paper PMC10252016
